assay: In vivo inhibition of LTD4-induced bronchospasm in guinea pig at dose of 50 mg/kg; conditions: Cavia porcellus
RECORDED_METRIC: inhibition (%)
Form entry: value (%) — number only.

Input line: Entry under review: `COC(=O)C(=O)Nc1cccc(OCc2ccc3ccccc3c2)c1` . Reported inhibition?
Output line: -1

Input line: Subsequent entry: `COC(=O)CCC(=O)Nc1cccc(OCc2ccc3ccccc3n2)c1C#N`
Output line: -6

Input line: Subsequent entry: `O=C(O)CCNC(=O)c1cccc(COc2ccc3ccccc3c2)c1`
Output line: 2

----------
Assignment: determine reported inhibition for the given compounds.
assay: In vivo inhibition of LTD4-induced bronchospasm in guinea pig at dose of 50 mg/kg; details: Cavia porcellus
Form entry: value (%) — number only.

Input line: Entry under review: `O=C(O)CCNC(=O)c1cccc(OCc2ccc3ccccc3c2)c1` . Reported inhibition?
Output line: 10

Input line: Subsequent entry: `COC(=O)CCC(=O)Nc1ccccc1OCc1ccc2ccccc2n1`
Output line: -6

Input line: Subsequent entry: `O=C(O)CCC(=O)Nc1cccc(OCc2ccc3ccccc3n2)c1`
Output line: 66

Input line: Subsequent entry: `COC(=O)CCC(=O)Nc1cccc(OCc2ccc3ccccc3n2)c1`
Output line: 86

Input line: Subsequent entry: `COC(=O)CCC(=O)N(O)c1cccc(OCc2ccc3ccccc3n2)c1`
Output line: 97

Input line: Subsequent entry: `COC(=O)CCC(=O)Nc1ccc(OCc2ccc3ccccc3n2)cc1`
Output line: -7

----------
test system: Cavia porcellus; assay: Compound was evaluated in vivo for the percent inhibition of Ovalbumin-induced (OA) bronchospasm in guinea pig at dose of 50 mg/kg id; format: functional; conditions: route intraduodenal
RECORDED_METRIC: inhibition in vivo at 50 mg/kg (%)
Form entry: value (%) — number only.

Input line: Identify the measured inhibition in vivo at 50 mg/kg of `COC(=O)CCC(=O)N(C)c1cccc(OCc2ccc3ccccc3n2)c1` for Cavia porcellus.
Output line: 2

Input line: Subsequent entry: `COC(=O)CCC(=O)N(O)c1cccc(OCc2ccc3ccccc3c2)c1`
Output line: 18

Input line: Subsequent entry: `O=C(O)CCC(=O)Nc1cccc(OCc2ccc3ccccc3n2)c1`
Output line: -20

Input line: Subsequent entry: `COC(=O)CCC(=O)N(O)c1cccc(OCc2ccc3ccccc3n2)c1`
Output line: 76

Input line: Subsequent entry: `CCOC(=O)CCC(=O)Nc1cccc(OCc2ccc3ccccc3n2)c1`
Output line: 6

Input line: Subsequent entry: `CCOC(=O)CC(=O)Nc1cccc(OCc2ccc3ccccc3n2)c1`
Output line: 67

Input line: Subsequent entry: `O=C(O)CCC(=O)N(O)c1cccc(OCc2ccc3ccccc3c2)c1`
Output line: -35

Input line: Subsequent entry: `COC(=O)CCC(=O)Nc1cccc(OCc2ccc3ccccc3n2)c1`
Output line: 43

Input line: Subsequent entry: `COC(=O)CC(=O)Nc1cccc(OCc2ccc3ccccc3n2)c1`
Output line: 57

Input line: Subsequent entry: `COC(=O)CCC(=O)Nc1cccc(Oc2ccc3ccccc3n2)c1`
Output line: -55

----------
biological target: Polyunsaturated fatty acid 5-lipoxygenase (Rattus norvegicus) (UniProt P12527); experiment: In vitro inhibition of rat polymorphonuclear leukocyte (PMN) 5-Lipoxygenase at 100 uM
Sequence (P12527 whole entry): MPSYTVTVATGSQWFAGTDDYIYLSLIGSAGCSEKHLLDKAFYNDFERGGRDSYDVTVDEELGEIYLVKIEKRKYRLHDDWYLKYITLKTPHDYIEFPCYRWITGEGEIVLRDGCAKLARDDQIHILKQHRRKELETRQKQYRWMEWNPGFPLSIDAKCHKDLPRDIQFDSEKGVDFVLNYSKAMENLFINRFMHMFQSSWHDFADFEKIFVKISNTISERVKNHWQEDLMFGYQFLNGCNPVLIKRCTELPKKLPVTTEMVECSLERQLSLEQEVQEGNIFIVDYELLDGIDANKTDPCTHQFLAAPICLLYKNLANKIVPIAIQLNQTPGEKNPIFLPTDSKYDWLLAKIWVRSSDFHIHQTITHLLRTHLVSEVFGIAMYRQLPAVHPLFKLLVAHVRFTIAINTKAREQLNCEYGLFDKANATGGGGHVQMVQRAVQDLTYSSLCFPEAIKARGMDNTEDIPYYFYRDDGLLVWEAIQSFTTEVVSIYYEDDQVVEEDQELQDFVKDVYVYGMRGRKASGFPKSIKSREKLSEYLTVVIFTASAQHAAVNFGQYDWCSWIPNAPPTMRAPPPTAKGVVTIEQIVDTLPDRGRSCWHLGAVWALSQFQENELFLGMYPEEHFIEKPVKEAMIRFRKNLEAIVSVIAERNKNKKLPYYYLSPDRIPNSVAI
RECORDED_METRIC: inhibition

Input line: Identify the measured inhibition of `COC(=O)CCC(=O)Nc1ccc(OCc2ccc3ccccc3c2)cc1` for Polyunsaturated fatty acid 5-lipoxygenase (Rattus norvegicus) (UniProt P12527).
Output line: < 50%

Input line: Subsequent entry: `COC(=O)CCC(=O)Nc1cccc(OCc2ccc3ccc(C)cc3n2)c1`
Output line: < 50%

Input line: Subsequent entry: `COC(=O)CCC(=O)Nc1ccccc1OCc1ccc2ccccc2n1`
Output line: < 50%

Input line: Subsequent entry: `O=C(O)CCNC(=O)c1cccc(COc2ccc3ccccc3c2)c1`
Output line: < 50%

Input line: Subsequent entry: `O=C(O)CCNC(=O)c1cccc(OCc2ccc3ccccc3c2)c1`
Output line: < 50%

Input line: Subsequent entry: `N#CCCNC(=O)c1cccc(OCc2ccc3ccccc3c2)c1`
Output line: < 50%

Input line: Subsequent entry: `COC(=O)CCC(=O)Nc1ccc(NC(=O)CCC(=O)OC)c(OCc2ccc3ccccc3n2)c1`
Output line: < 50%

Input line: Subsequent entry: `COC(=O)CCC(=O)Nc1cccc(OCc2ccc3ccccc3n2)c1C#N`
Output line: < 50%

Input line: Subsequent entry: `COC(=O)CCC(=O)Nc1cccc(OCc2cccc3cccnc23)c1`
Output line: < 50%

Input line: Subsequent entry: `O=C(O)CCC(=O)Nc1cccc(OCc2ccc3ccccc3n2)c1`
Output line: < 50%
